Origin of the recorded values: the supplement of paper PMC8728848

The reader will find reported glycan array binding signal (z-score) values listed item by item below.
molecular target: Fuc(a1-2)Gal(b1-4)[Fuc(a1-3)]GlcNAc(b1-2)Man(a1-3)[Fuc(a1-2)Gal(b1-4)[Fuc(a1-3)]GlcNAc(b1-2)Man(a1-6)]Man(b1-4)GlcNAc(b1-4)[Fuc(a1-6)]GlcNAc; assay: glycan array binding signal (z-score within array); higher = stronger binding; conditions: glycan notation: IUPAC condensed, linker removed
Shown is part of a subset that was picked to be rich in the strongest signals.
No unit in the answer, please; the number alone is enough.

Reference set (3 entries):
>  <binder>
WGA (Triticum vulgare) (protein) QRCGEQGSNMECPNNLCCSQYGYCGMGGDYCGKGCQNGACWTSKRCGSQAGGATCPNNHCCSQYGHCGFGAEYCGAGCQGGPCRADIKCGSQSGGKLCPNNLCCSQWGFCGLGSEFCGGGCQSGACSTDKPCGKDAGGRVCTNNYCCSKWGSCGIGPGYCGAGCQSGGCDAVFAGAITANSTLLAE

>  <glycan array binding signal (z-score)>
-0.297

$$$$
>  <binder>
LBL-152 (Laetiporus bicolor), B0D650 (protein) MSNEYNPPLGIAFRLCGLASDRVLFSRVSPSPEVFHHPKSEVYPDQWFVAIPGSGQNAGCYAIKSKNTGKVLFSRMSPDPRVGHIDGDGKYPDNWFKFEAGSGKYAGYFRLRAVASDTVLVSRTSTGTDTQVINYPATSAKYDDQYFTILFDHHHHHH

>  <glycan array binding signal (z-score)>
-0.147

$$$$
>  <binder>
ECL (Erythrina cristagalli), Q6YD91 (protein) VETISFSFSEFEPGNNDLTLQGAAIITQSGVLQLTKINQNGMPAWDSTGRTLYTKPVHIWDMTTGTVASFETRFSFSIEQPYTRPLPADGLVFFMGPTKSKPAQGYGYLGVFNNSKQDNSYQTLAVEFDTFSNPWDPPQVPHIGIDVNSIRSIKTQPFQLDNGQVANVVIKYDASSKILLAVLVYPSSGAIYTIAEIVDVKQVLPEWVDVGLSGATGAQRDAAETHDVYSWSFHASLPETND

>  <glycan array binding signal (z-score)>
-0.185

$$$$

Next up:
Incoming: Kindly indicate its recorded glycan array binding signal (z-score). Item: LlpA (Arthrobacter sp) (protein) MGSSHHHHHHSSGLVPRGSHMTLHPETALRPGAAATSPNSRYRLLYQTDGNLVLYGPDGPLWDSGTNGHGAGACIMQADGNLVLYGPNDEYVWDTETDNNPGSRLVIQDDGNAVIYRPDGSPLWATETCQPPGSADSHVLQSGSTLTPTHGIRSANGLYGLLYQTDGNLVFYGPDGPLWDSGTNGRGAGACIMQPDGNLVLYGPHDEYVWDTETDNNPGSRLVIQDDGNAVIYRPDGNPTWVTGTH
Outgoing: 1.97
